B1: tRNA (parent)
chain: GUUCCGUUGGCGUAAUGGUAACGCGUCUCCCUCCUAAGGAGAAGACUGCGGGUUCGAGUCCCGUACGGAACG

variants of: B1; test: yeast fitness relative to wild type (ratio to wild type); higher = fitter; tRNA-Arg(CCU), competitive growth, 37 C, YPD
Fewer inactive variants are shown than the library holds.
measuredEndpoint: yeast fitness
Please reply with the number alone, leaving off any unit.

# count of solved cases: 5
A14C C22G G25A C31U | 0.528
G10A C49A | 0.521
C24U G44C | 0.825
G23C G38A | 0.696
U2C C66U A69U | 0.603

Task: Please look up its yeast fitness: U26C C27U U59C
Result: 0.702
